Test: Human HepG2 cell viability assay in 384 well format
Assay type: toxicity, cell-based
Set-up: dose 125 nL, time 70.5 hour; concentration not given beside the values
Settings: HepG2 cells, read-out: Inhibition
MEASURED ATTRIBUTE: cytotoxicity at 70.5 h (%)
Kindly answer with a numeric value in %, unit omitted.

# input Sample "Cc1ccc(-c2cc(-c3nc(CN4CCN(C)CC4)no3)[nH]n2)s1" — what was its cytotoxicity at 70.5 h?
# output -10.5

# input Sample "CN1CCCN(C(=O)NCCNc2cnccn2)CC1" — what was its cytotoxicity at 70.5 h?
# output -3.22

# input Sample Cn1cc(C(=O)CC2CCCN2C(=O)c2ccn3ccnc3c2)cn1 (stereo unspecified) — what was its cytotoxicity at 70.5 h?
# output -10.3

# input Sample "O=C1O[C@@H]2CN(CCc3ccccc3)C[C@@H]2N1CCCN1CCOCC1" — what was its cytotoxicity at 70.5 h?
# output -3.23

# input Sample "Cc1cc(C(=O)N2CCN(c3nc4c(C(C)C)cccc4s3)CC2)on1" — what was its cytotoxicity at 70.5 h?
# output 32

# input Sample Oc1ccc(CCC2CCCCN2Cc2noc(C3CC3)n2)cc1 (stereo unspecified) — what was its cytotoxicity at 70.5 h?
# output 15.5

# input Sample CSCCC(=O)N1CCCC1c1nnc2n1CCCCC2 (stereo unspecified) — what was its cytotoxicity at 70.5 h?
# output -3.4

# input Sample "Cc1c(C)n(Cc2ccncc2)c2nc3c(c(N)c12)CCCC3" — what was its cytotoxicity at 70.5 h?
# output -7.64

# input Sample CN(C)C(=O)N1CCOCC2(CCN(c3ncccn3)C2)C1 (stereo unspecified) — what was its cytotoxicity at 70.5 h?
# output -5.25

# input Sample "O=C1NCCN1CCNc1cc(-c2ccncc2)nc2ccnn12" — what was its cytotoxicity at 70.5 h?
# output -10.3

# input Sample CC(NC1(CNC(=O)NC2CC2)CCOCC1)c1ccccc1 (stereo unspecified) — what was its cytotoxicity at 70.5 h?
# output 14.3
